Target: γ-secretase (Homo sapiens, UniProt P49768)
Construct: endogenous in cells; host or cells: SKNBE2 human neuroblastoma cells carrying hAPP 695 wild type
Test: Screening for γ-secretase-modulating activity: Aβtotal in cell supernatant (Alphalisa sandwich immuno-assay)
Type: cell-based
Details: SKNBE2 human neuroblastoma cells carrying hAPP 695-wild type, overnight incubation
pIC50: −log10 of the molar value.

molecule | pIC50
Cc1cn(-c2ccc3n(c2=O)C[C@@H]2CC[C@@H](Cc4cc(C(F)(F)F)cc(C(F)(F)F)c4)N2C3=O)cn1 (single isomer, unassigned) [Compound 2] | < 5.00
Cc1cn(-c2ccc3n(c2=O)CC2CCC(Cc4cc(C(F)(F)F)cc(C(F)(F)F)c4)N2C3=O)cn1 (stereo not drawn) | < 5.00
Cc1cn(-c2ccc3n(c2=O)C[C@H]2CC[C@H](c4ccc(Cl)c(Cl)c4)N2C3=O)cn1 | 5.03
Cc1cn(-c2ccc3n(c2=O)C[C@@H]2CCC[C@H](Cc4cc(C(F)(F)F)cc(C(F)(F)F)c4)N2C3=O)cn1 (single isomer, unassigned) [Compound 8] | < 5.00
Cc1cn(-c2ccc3n(c2=O)C[C@@H]2CC[C@@H](Cc4cc(C(F)(F)F)cc(C(F)(F)F)c4)N2C3=O)cn1 (single isomer, unassigned) [Compound 4] | < 5.00
Cc1cn(-c2ccc3n(c2=O)C[C@@H]2CCC[C@H](Cc4cc(C(F)(F)F)cc(C(F)(F)F)c4)N2C3=O)cn1 (single isomer, unassigned) [Compound 9] | < 5.00
Cc1cn(-c2ccc3n(c2=O)C[C@@H]2CCC[C@@H](Cc4cc(C(F)(F)F)cc(C(F)(F)F)c4)N2C3=O)cn1 (single isomer, unassigned) [Compound 10] | 5.50
Cc1cn(-c2ccc3n(c2=O)C[C@H]2CC[C@@H](c4ccc(Cl)c(Cl)c4)N2C3=O)cn1 | < 4.82
Cc1cn(-c2ccc3n(c2=O)C[C@@H]2CCC[C@@H](Cc4cc(C(F)(F)F)cc(C(F)(F)F)c4)N2C3=O)cn1 (single isomer, unassigned) [Compound 7] | < 5.00
Cc1cn(-c2ccc3n(c2=O)C[C@@H]2CC[C@H](Cc4cc(C(F)(F)F)cc(C(F)(F)F)c4)N2C3=O)cn1 (single isomer, unassigned) [Compound 5] | < 5.00
Cc1cn(-c2ccc3n(c2=O)C[C@@H]2CC[C@@H](c4cc(C(F)(F)F)cc(C(F)(F)F)c4)N2C3=O)cn1 | < 5.00
Cc1cn(-c2ccc3n(c2=O)C[C@@H]2CC[C@H](c4cc(C(F)(F)F)cc(C(F)(F)F)c4)N2C3=O)cn1 | < 5.00

* * *

The reader will find reported melting point values listed item by item below.

molecule | melting point [°C]
Cc1cn(-c2ccc3n(c2=O)C[C@@H]2CCC[C@@H](Cc4cc(C(F)(F)F)cc(C(F)(F)F)c4)N2C3=O)cn1 (single isomer, unassigned) [Compound 7] | 231.07
Cc1cn(-c2ccc3n(c2=O)C[C@@H]2CC[C@H](Cc4cc(C(F)(F)F)cc(C(F)(F)F)c4)N2C3=O)cn1 (single isomer, unassigned) [Compound 3] | 241.17
Cc1cn(-c2ccc3n(c2=O)C[C@@H]2CCC[C@H](Cc4cc(C(F)(F)F)cc(C(F)(F)F)c4)N2C3=O)cn1 (single isomer, unassigned) [Compound 9] | 246.53

* * *

Target: γ-secretase (Homo sapiens)
Construct: endogenous in cells; host or cells: SKNBE2 human neuroblastoma cells carrying hAPP 695 wild type
Assay: Screening for γ-secretase-modulating activity: Aβ42 in cell supernatant (Alphalisa sandwich immuno-assay)
Type: cell-based
Conditions: SKNBE2 human neuroblastoma cells carrying hAPP 695-wild type, overnight incubation
pIC50: −log10 of the molar value.
The reader will find reported pIC50 values listed item by item below.

compound | measurement.qualifier | pIC50
Cc1cn(-c2ccc3n(c2=O)C[C@@H]2CCC[C@H](Cc4cc(C(F)(F)F)cc(C(F)(F)F)c4)N2C3=O)cn1 (single isomer, unassigned) [Compound 9] | = | 6.54
Cc1cn(-c2ccc3n(c2=O)C[C@@H]2CC[C@@H](c4cc(C(F)(F)F)cc(C(F)(F)F)c4)N2C3=O)cn1 [Compound 16] | = | 6.72
Cc1cn(-c2ccc3n(c2=O)C[C@@H]2CCC[C@H](c4cc(C(F)(F)F)cc(C(F)(F)F)c4)N2C3=O)cn1 (single isomer, unassigned) [Compound 13] | < | 5.00
Cc1cn(-c2ccc3n(c2=O)C[C@@H]2CC[C@H](c4cc(C(F)(F)F)cc(C(F)(F)F)c4)N2C3=O)cn1 [Compound 18] | < | 5.00
Cc1cn(-c2ccc3n(c2=O)C[C@H]2CC[C@H](c4ccc(Cl)c(Cl)c4)N2C3=O)cn1 [Compound 20] | = | 5.35
Cc1cn(-c2ccc3n(c2=O)C[C@@H]2CCC[C@H](Cc4cc(C(F)(F)F)cc(C(F)(F)F)c4)N2C3=O)cn1 (single isomer, unassigned) [Compound 8] | = | 6.96

* * *

Molecular target: γ-secretase (Homo sapiens)
Construct: endogenous in cells; host or cells: SKNBE2 human neuroblastoma cells carrying hAPP 695 wild type
Assay: Screening for γ-secretase-modulating activity: Aβ42 in cell supernatant (Alphalisa sandwich immuno-assay)
Format: cell-based
Details: SKNBE2 human neuroblastoma cells carrying hAPP 695-wild type, overnight incubation
The reader will find reported IC50 values listed item by item below.

compound | IC50
Cc1cn(-c2ccc3n(c2=O)C[C@H]2CC[C@H](c4cc(C(F)(F)F)cc(C(F)(F)F)c4)N2C3=O)cn1 | 4570 nM
Cc1cn(-c2ccc3n(c2=O)C[C@@H]2CC[C@@H](Cc4cc(C(F)(F)F)cc(C(F)(F)F)c4)N2C3=O)cn1 (single isomer, unassigned) [Compound 2] | > 10000 nM
Cc1cn(-c2ccc3n(c2=O)C[C@@H]2CC[C@@H](Cc4cc(C(F)(F)F)cc(C(F)(F)F)c4)N2C3=O)cn1 (single isomer, unassigned) [Compound 4] | 50 nM
Cc1cn(-c2ccc3n(c2=O)C[C@@H]2CCC[C@@H](Cc4cc(C(F)(F)F)cc(C(F)(F)F)c4)N2C3=O)cn1 (single isomer, unassigned) [Compound 7] | 1120 nM
Cc1cn(-c2ccc3n(c2=O)C[C@H]2CC[C@@H](c4ccc(Cl)c(Cl)c4)N2C3=O)cn1 | 1320 nM
Cc1cn(-c2ccc3n(c2=O)C[C@@H]2CC[C@H](Cc4cc(C(F)(F)F)cc(C(F)(F)F)c4)N2C3=O)cn1 (single isomer, unassigned) [Compound 5] | 980 nM
Cc1cn(-c2ccc3n(c2=O)C[C@@H]2CCC[C@@H](Cc4cc(C(F)(F)F)cc(C(F)(F)F)c4)N2C3=O)cn1 (single isomer, unassigned) [Compound 10] | 130 nM
Cc1cn(-c2ccc3n(c2=O)C[C@@H]2CC[C@H](Cc4cc(C(F)(F)F)cc(C(F)(F)F)c4)N2C3=O)cn1 (single isomer, unassigned) [Compound 3] | 420 nM
Cc1cn(-c2ccc3n(c2=O)C[C@@H]2CCC[C@H](c4cc(C(F)(F)F)cc(C(F)(F)F)c4)N2C3=O)cn1 (single isomer, unassigned) [Compound 12] | 240 nM
Cc1cn(-c2ccc3n(c2=O)CC2CCC(Cc4cc(C(F)(F)F)cc(C(F)(F)F)c4)N2C3=O)cn1 (centres unmarked) | 160 nM
Cc1cn(-c2ccc3n(c2=O)C[C@H]2CC[C@@H](c4cc(C(F)(F)F)cc(C(F)(F)F)c4)N2C3=O)cn1 | 720 nM
